assay: amyloid nucleation score (Sup35N fusion, yeast selection) (log enrichment); library NNK2; higher = more nucleation; inactive = no reads after selection;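 note: zero at mode of non-aggregating sequences after 7 days selection at 30°C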
Please go through the items and note down their amyloid nucleation score.
Lab note: jot the number down without any unit.

Query (sequence): AVSIGLYFVQASP ; field requested: amyloid nucleation score
9.66

Need amyloid nucleation score, item SAGYKLDSCTVYWGLACDSR
-0.366

May I ask what amyloid nucleation score has been recorded for DKYNTVRLCP ?
0.987

Report amyloid nucleation score for SRVIWHDSQLFVVFSSTAYK please.
4.04

amyloid nucleation score for LRCSESCNLMNKYGWRRNQA ?
3.65

Any idea what its amyloid nucleation score is? The sequence is SLSVAWKWGGRSDN
6.21

Requested read-out: amyloid nucleation score. Entry: LFKPLRNR
-0.918

Would you mind telling me what amyloid nucleation score value was observed for HIMSIDVPSNLSLQFIMVGY ?
0.306
